Attribution: patent US6737383B1

System: sugar beet
procedureText: Test B pre/postemergence sugar beet
Type: in vivo, Beta vulgaris
experimentalSetup: Rate 125 g/ha; Preemergence; scale of 0 to 10 where 0 is no effect and 10 is complete control
In this section, each of the compounds is paired with its reported Sugarbeets plant response rating.
measuredParameter: Sugarbeets plant response rating

>>> df
                                   compound                 measuredparameter  observedvalue
0  CCOC(=O)C(C)N(C(=O)n1oc(=O)n(C2CCCCC2)c1=O)c1ccc(F)cc1 (centres unmarked)  Sugarbeets plant response rating              0
1  Cc1nc(C)c(Cn2c(=O)on(C(=O)N(c3ccc(F)cc3)C(C)C)c2=O)s1  Sugarbeets plant response rating              0
2  CC(C)N(C(=O)n1oc(=O)n(CC(C)(C)C)c1=O)c1ccc(F)cc1F  Sugarbeets plant response rating              1
3  C#CCn1c(=O)on(C(=O)N(c2ccc(F)cc2)C(C)C)c1=O  Sugarbeets plant response rating              5
4  CC(C)N(C(=O)n1oc(=O)n(CCC2OCCCO2)c1=O)c1ccc(F)cc1  Sugarbeets plant response rating              3

====

System: wild oat
procedureText: Test B pre/postemergence wild oat
Assay type: in vivo, Avena fatua
experimentalSetup: Rate 500 g/ha, Preemergence; scale 0 to 10 (0 no effect, 10 complete control)
# Wild oats plant response rating annotations
measuredParameter: Wild oats plant response rating

                                   compound  observedvalue
0  COC(=O)C(c1ccccc1)n1c(=O)on(C(=O)N(c2ccc(Cl)cc2)C(C)C)c1=O (centres unmarked)              0
1  CC(C)N(C(=O)n1oc(=O)n(C(C)C2CCC2)c1=O)c1ccc(F)cc1 (centres unmarked)              8
2  CC(C)N(C(=O)n1oc(=O)n(CCN(C)C(=O)c2ccccc2)c1=O)c1ccc(F)cc1F              0
3  C#CCn1c(=O)on(C(=O)N(c2ccccc2)C(C)C)c1=O              9
4  CC(C)N(C(=O)n1oc(=O)n(CCCCl)c1=O)c1ccc(Cl)cc1              8

====

System: cocklebur
procedureText: Test B pre/postemergence cocklebur
Assay type: in vivo, Xanthium strumarium
experimentalSetup: Rate 500 g/ha, Postemergence; scale 0 to 10, 0 no effect, 10 complete control
measuredParameter: Plant response rating, Cocklebur

                                   compound  measurementtarget  observedvalue
0  Cc1c(-n2c(=O)on(C(=O)N(c3ccc(Cl)cc3)C(C)C)c2=O)ccc2ccccc12 [Compound 336]          cocklebur              0
1  CC(C)N(C(=O)n1oc(=O)n(-c2ccc3ccccc3c2)c1=O)c1ccc(Cl)cc1 [Compound 333]          cocklebur              0
2  Cc1c(-n2c(=O)on(C(=O)N(c3ccccc3)C(C)C)c2=O)ccc2ccccc12 [Compound 344]          cocklebur              0
3  Cc1nnsc1Cn1c(=O)on(C(=O)N(c2ccccc2)C(C)C)c1=O [Compound 378]          cocklebur              1

====

Tested on: rape
procedureText: Test B pre/postemergence rape
Assay type: in vivo, Brassica napus
experimentalSetup: Postemergence, Rate 125 g/ha; scale 0 to 10, 0 is no effect, 10 is complete control
The following compounds are shown together with reported Plant response rating, Rape values.
measuredParameter: Plant response rating, Rape

                                   compound  observedvalue
0  CC(C)C(C)n1c(=O)on(C(=O)N(c2ccccc2)C(C)C)c1=O (centres unmarked)              0
1  CCOC(=O)C(C)N(C(=O)n1oc(=O)n(-c2c(C)cccc2OC)c1=O)c1ccc(F)cc1 (centres unmarked)              0
2  Cc1nsc(Cl)c1Cn1c(=O)on(C(=O)N(c2ccccc2)C(C)C)c1=O              2
3  Cc1nnsc1Cn1c(=O)on(C(=O)N(c2ccccc2)C(C)C)c1=O              0
4  CCC(CC)n1c(=O)on(C(=O)N(c2ccccc2)C(C)C)c1=O              0
